// data source = the supplement of paper PMC10567573

Could you please report measured protein stability index for the items listed next?
B1: SLC2A12 (parent)
chain: LTLVFFVQITGQPNILFYASTVLK

Variants of: B1
Assay: protein stability index of a GFP-peptide fusion (GPS, HEK-293T) (PSI 1-6); higher = more stable;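 note: lentivirally expressed fusions sorted by FACS into six bins by GFP to DsRed ratio, PSI derived from sequencing read proportions per bin multiplied by bin number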
Conditions: c terminus: a fixed tail appended
Answers are plain numbers.

Your task in this section: give protein stability index for each listed record.
1. L23T
2. F5V
3. P13E
4. S20Y
5. T2K
6. Q12L
7. L1W
8. A19T

Output line:
1. 3.09
2. 2.47
3. 3.73
4. 3.22
5. 3.54
6. 3.8
7. 2.65
8. 2.42

Your task in this section: give protein stability index for each listed record.
1. V22A
2. S20A
3. I15L
4. F17T
5. N14I
6. N14P
7. Y18E
8. Q8H

Output line:
1: 4.16; 2: 2.52; 3: 4.71; 4: 3.28; 5: 4.38; 6: 2.34; 7: 2.04; 8: 3.26
